# credit: paper PMC4834746

Type: in vivo, rat
Conditions: male, Crl:CD(SD), rat, plasma, po, 20 mg/kg, t1/2, rat plasma, oral 20 mg/kg acetaminophen, mean
Listed next: entries and their corresponding half-life.
quantity measured: half-life (min)

# molecule, units of measure, measurement
measured = [
    ("CC(=O)Nc1ccc(O[C@@H]2O[C@H](C(=O)O)[C@@H](O)[C@H](O)[C@H]2O)cc1 [Glu, acetaminophen glucuronide]", "min", 25),
    ("CC(=O)Nc1ccc(O)cc1 [APAP, Acetaminophen, reference compound]", "min", 17.9),
]

====

Format: in vivo, rat
Conditions: male, Crl:CD(SD), rat, plasma, po, 20 mg/kg
Listed next: entries and their corresponding k el.

# molecule, k el, s⁻¹
measured = [
    ("CC(=O)Nc1ccc(O[C@@H]2O[C@H](C(=O)O)[C@@H](O)[C@H](O)[C@H]2O)cc1 [Glu, acetaminophen glucuronide]", 0.000533),
    ("CC(=O)Nc1ccc(O)cc1 [APAP, Acetaminophen, reference compound]", 0.000644),
]
